assaySystem: T1, Homo sapiens factor Bb protein (human, UniProt P00751 260-764)
T1 construct: Bought from CompTech (A155); also called complement factor Bb; human factor Bb
T1 sequence (P00751 260-764 limits assumed): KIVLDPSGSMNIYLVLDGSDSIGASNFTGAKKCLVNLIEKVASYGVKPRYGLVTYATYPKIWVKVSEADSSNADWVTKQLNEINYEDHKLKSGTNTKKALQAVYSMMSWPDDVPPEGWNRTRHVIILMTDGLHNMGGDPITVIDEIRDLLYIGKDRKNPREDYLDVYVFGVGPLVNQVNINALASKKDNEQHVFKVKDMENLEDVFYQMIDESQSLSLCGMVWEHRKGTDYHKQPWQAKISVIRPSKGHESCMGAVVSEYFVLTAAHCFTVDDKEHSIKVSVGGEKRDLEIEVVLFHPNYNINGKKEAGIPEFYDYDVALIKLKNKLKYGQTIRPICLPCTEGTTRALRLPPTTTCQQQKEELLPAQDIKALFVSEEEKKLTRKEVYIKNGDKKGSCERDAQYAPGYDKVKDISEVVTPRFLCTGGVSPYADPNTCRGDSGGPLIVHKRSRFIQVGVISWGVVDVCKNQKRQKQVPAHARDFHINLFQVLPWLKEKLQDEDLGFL
testDetails: SPR single cycle kinetics, IgG on Protein A chip, factor Bb analyte
pKd: −log10 of the molar value.
assayEndpoint: pKd

binder: VH5/Vκ6 (antibody, V domains shown, Redesigned variant; cloned into the appropriate expression vector (IgG4v1 and kappa were used in the first round), HEK EBNA supernatant) VH: EVQLVESGGGLVKPGGSLRLSCAASGFTFSNYAMSWVRQTPEKRLEWVATISNRGSYTYYPDSVKGRFTISRDNAKNSLYLQMSSLRSEDTALYYCARERPMDYWGQGTSVTVSS VL: DIVMTQSPSFLSASVGDRVTITCKASQDVGTAVAWYQQKPGKAPKLLIYWASTRHTGVPDRFTGSGSGTDFTLTISSLQSEDFAVYFCHQHSSNPLTFGQGTKLEIK
assayEndpoint: pKd
readoutValue: 6.89
--
binder: VH4/Vκ7 (antibody, V domains shown, Redesigned variant; cloned into the appropriate expression vector (IgG4v1 and kappa were used in the first round)) VH: EVQLVESGGGLVKPGGSLRLSCAASGFTFSNYAMSWVRQAPGKRLEWVATISNRGSYTYYPDSVKGRFTISRDNAKNSLYLQMSSLRSEDTALYYCARERPMDYWGQGTSVTVSS VL: DIQMTQSPSTLSASVGDRVTITCKASQDVGTAVAWYQQKPGKAPKLLIYWASTRHTGVPDRFSGSGSGTDFTLTISSLQAEDFAVYFCHQHSSNPLTFGQGTKLEIK
assayEndpoint: pKd
readoutValue: 8.63
--
binder: VH6/Vκ6 (antibody, V domains shown, Redesigned variant; cloned into the appropriate expression vector (IgG4v1 and kappa were used in the first round)) VH: EVQLVESGGGLVKPGGSLRLSCAASGFTFSNYAMSWVRQAPGKRLEWVATISNRGSYTYYPDSVKGRFTISRDNAKNSLYLQMNSLRAEDTALYYCARERPMDYWGQGTLVTVSS VL: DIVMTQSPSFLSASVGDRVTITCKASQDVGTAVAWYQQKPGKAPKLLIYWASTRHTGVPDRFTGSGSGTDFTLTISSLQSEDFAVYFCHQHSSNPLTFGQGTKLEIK
assayEndpoint: pKd
readoutValue: 8.42
--
binder: VH5/Vκ0 (antibody, V domains shown, Control antibody of the redesign round; cloned into the appropriate expression vector (IgG4v1 and kappa were used in the first round), HEK EBNA supernatant) VH: EVQLVESGGGLVKPGGSLRLSCAASGFTFSNYAMSWVRQTPEKRLEWVATISNRGSYTYYPDSVKGRFTISRDNAKNSLYLQMSSLRSEDTALYYCARERPMDYWGQGTSVTVSS VL: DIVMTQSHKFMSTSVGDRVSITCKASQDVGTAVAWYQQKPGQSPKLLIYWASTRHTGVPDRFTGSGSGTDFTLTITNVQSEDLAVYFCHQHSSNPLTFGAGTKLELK
assayEndpoint: pKd
readoutValue: 6.38
--
binder: VH7/Vκ0 (antibody, V domains shown, Control antibody of the redesign round; cloned into the appropriate expression vector (IgG4v1 and kappa were used in the first round), HEK EBNA supernatant) VH: EVQLVESGGGLVKPGGSLRLSCAASGFTFSNYAMSWVRQTPEKRLEWVATISNRGSYTYYPDSVKGRFTISRDNAKNSLYLQMNSLRAEDTALYYCARERPMDYWGQGTLVTVSS VL: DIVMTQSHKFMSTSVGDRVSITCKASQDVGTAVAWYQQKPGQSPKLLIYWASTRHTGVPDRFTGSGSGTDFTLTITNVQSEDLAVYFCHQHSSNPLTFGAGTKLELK
assayEndpoint: pKd
readoutValue: 8.12

Recorded values, source patent US20210332115A1.
